Target: T1, Recombinant S. cerevisiae Ess1 protein (S. cerevisiae, UniProt P22696 1-170)
T1 construct: Ess1 peptidyl prolyl cis/trans isomerase, S. cerevisiae; also called purified Ess1 protein; Ess1 prolyl isomerase; source: Escherichia coli, purified as described (Li et al. 2005)
T1 sequence (looked up): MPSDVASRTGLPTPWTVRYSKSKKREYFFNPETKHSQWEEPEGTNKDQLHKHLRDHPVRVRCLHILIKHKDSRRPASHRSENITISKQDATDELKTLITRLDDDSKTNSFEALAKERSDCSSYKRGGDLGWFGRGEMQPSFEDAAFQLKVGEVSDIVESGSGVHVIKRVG
Experiment: BLI; Octet RED, 24°; N-terminally biotinylated peptides immobilised on streptavidin biosensors; Ess1 in solution (3, 10, 30 μM); 20 mM Tris-HCl pH 8.0, 1 mg/mL BSA; no-peptide sensor subtracted; apparent dissociation constants (Kapp) from kinetic and equilibrium data, considering only the predominant faster-dissociating signal; for unphosphorylated peptides Kapp estimated from the signal at 30 μM Ess1
Details: both partners purified
No end group written: not given here. *: point of attachment. Biotin = O=C1N[C@H]2[C@H](CS[C@H]2CCCCC(=O)*)N1
MEASUREMENT KIND: Kd

{"BINDER": "Biotin-GGSGGSYSPTSPSYS (flexible linker ([Gly-Gly-Ser]2); based on the consensus heptapeptide repeat in the carboxy-terminal domain (CTD) of Rpb1, largest subunit of RNA polymerase II; also called unphosphorylated CTD peptide; unphosphorylated CTD control peptide; source: synthetic peptide (NEOBioLab), HPLC purified >95%) [CTD peptide (unphosphorylated)]", "MEASUREMENT KIND": "Kd", "RESULT": "> 300 µM"}

Determine its reported Kd: Biotin-GGSGGTPSPPSPPGI (flexible linker; source: synthetic peptide (NEOBioLab), HPLC purified >95%) [Whi5-NLS peptide (unphosphorylated)] > 25 µM

Determine its reported Kd: Biotin-GGSGGSRELGSPLKK (flexible linker ([Gly-Gly-Ser]2); source: synthetic peptide (NEOBioLab), HPLC purified >95%) [Swi6-NLS peptide (unphosphorylated)] > 100 µM

Determine its reported Kd: Biotin-GGSGGFLSPSPRLRSPPT (flexible linker; Whi5, S. cerevisiae, residues 152-164 (portion of the nuclear export signal); source: synthetic peptide (NEOBioLab), HPLC purified >95%) [Whi5-NES peptide (unphosphorylated)] > 1500 µM
